# bioavailability values compiled below
experiment: Bioavailability in mouse; format: ADME, organism-based; conditions: in vivo

{"line.notation": "Nc1ncnc2c1c(-c1ccc3nc(Cc4ccccc4Cl)[nH]c3c1)nn2[C@H]1CC[C@H](N2CCOCC2)CC1", "bioavailability [%]": 28}
{"line.notation": "Nc1ncnc2c1c(-c1ccc3nc(Cc4ccccc4)[nH]c3c1)nn2[C@H]1CC[C@H](N2CCOCC2)CC1", "bioavailability [%]": 15}
{"line.notation": "Nc1ncnc2c1c(-c1ccc3nc(Cc4cccs4)[nH]c3c1)nn2[C@H]1CC[C@H](N2CCOCC2)CC1", "bioavailability [%]": 9}

====

assay: Half life in mouse; assay type: ADME, organism-based; conditions: in vivo

{"line.notation": "Nc1ncnc2c1c(-c1ccc3nc(Cc4ccccc4)[nH]c3c1)nn2[C@H]1CC[C@H](N2CCOCC2)CC1", "half-life (h)": 1}
{"line.notation": "Nc1ncnc2c1c(-c1ccc3nc(Cc4cccs4)[nH]c3c1)nn2[C@H]1CC[C@H](N2CCOCC2)CC1", "half-life (h)": 0.6}
{"line.notation": "Nc1ncnc2c1c(-c1ccc3nc(Cc4ccccc4Cl)[nH]c3c1)nn2[C@H]1CC[C@H](N2CCOCC2)CC1", "half-life (h)": 1.2}

====

target: Insulin-like growth factor 1 receptor (Homo sapiens); assay: Inhibition IGF1R phosphorylation in human MiaPaCa2 cells; type: cell-based
Sequence (P08069 31-736 limits assumed): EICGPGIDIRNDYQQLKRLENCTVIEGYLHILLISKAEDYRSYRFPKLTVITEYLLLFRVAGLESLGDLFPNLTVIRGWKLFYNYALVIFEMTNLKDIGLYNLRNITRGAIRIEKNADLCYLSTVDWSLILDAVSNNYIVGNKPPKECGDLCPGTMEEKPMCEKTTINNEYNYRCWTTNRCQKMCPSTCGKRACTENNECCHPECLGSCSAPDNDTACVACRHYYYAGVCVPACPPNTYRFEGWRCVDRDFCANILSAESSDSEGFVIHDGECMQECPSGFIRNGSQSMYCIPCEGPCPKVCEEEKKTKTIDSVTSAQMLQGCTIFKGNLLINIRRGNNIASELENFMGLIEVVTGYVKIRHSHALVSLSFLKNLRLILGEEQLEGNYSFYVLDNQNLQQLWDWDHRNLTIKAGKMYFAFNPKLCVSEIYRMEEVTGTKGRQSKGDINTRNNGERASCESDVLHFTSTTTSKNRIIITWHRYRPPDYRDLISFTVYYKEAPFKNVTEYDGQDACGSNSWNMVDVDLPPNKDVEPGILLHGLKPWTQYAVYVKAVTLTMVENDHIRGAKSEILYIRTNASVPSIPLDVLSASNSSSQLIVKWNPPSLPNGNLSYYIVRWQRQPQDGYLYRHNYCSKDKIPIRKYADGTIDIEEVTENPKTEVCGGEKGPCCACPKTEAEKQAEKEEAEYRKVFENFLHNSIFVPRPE
Sequence (P08069 741-1367 limits assumed): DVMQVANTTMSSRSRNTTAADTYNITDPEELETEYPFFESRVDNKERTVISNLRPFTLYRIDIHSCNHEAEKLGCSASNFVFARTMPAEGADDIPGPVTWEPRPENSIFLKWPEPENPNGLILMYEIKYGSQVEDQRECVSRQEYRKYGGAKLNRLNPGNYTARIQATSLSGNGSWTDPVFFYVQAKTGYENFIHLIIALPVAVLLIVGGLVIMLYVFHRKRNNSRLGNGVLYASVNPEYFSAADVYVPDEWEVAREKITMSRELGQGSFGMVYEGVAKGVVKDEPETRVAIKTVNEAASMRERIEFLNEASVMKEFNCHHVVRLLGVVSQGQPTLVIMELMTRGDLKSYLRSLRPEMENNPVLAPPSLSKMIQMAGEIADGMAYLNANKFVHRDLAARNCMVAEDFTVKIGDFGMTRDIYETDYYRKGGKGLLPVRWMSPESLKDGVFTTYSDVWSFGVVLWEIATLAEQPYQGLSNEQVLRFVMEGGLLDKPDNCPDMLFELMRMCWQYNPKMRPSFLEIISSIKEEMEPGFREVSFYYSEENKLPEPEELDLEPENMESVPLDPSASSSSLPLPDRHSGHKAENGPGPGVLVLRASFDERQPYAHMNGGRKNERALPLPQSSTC

{"line.notation": "Nc1ncnc2c1c(-c1ccc3nc(Cc4ccc(F)c(F)c4)[nH]c3c1)nn2[C@H]1CC[C@H](N2CCOCC2)CC1", "readout.unit": "nM", "IC50": 819}
{"line.notation": "COc1ccccc1Cc1nc2ccc(-c3nn([C@H]4CC[C@H](N5CCOCC5)CC4)c4ncnc(N)c34)cc2[nH]1", "readout.unit": "nM", "IC50": 142}
{"line.notation": "Nc1ncnc2c1c(-c1ccc3nc(Cc4c(F)cccc4F)[nH]c3c1)nn2[C@H]1CC[C@H](N2CCOCC2)CC1", "readout.unit": "nM", "IC50": 104}
{"line.notation": "Nc1ncnc2c1c(-c1ccc3nc(Cc4ccsc4)[nH]c3c1)nn2[C@H]1CC[C@H](N2CCOCC2)CC1", "readout.unit": "nM", "IC50": 84}
{"line.notation": "Nc1ncnc2c1c(-c1ccc3nc(Cc4ccc(Cl)c(Cl)c4)[nH]c3c1)nn2[C@H]1CC[C@H](N2CCOCC2)CC1", "readout.unit": "nM", "IC50": 429}
{"line.notation": "Nc1ncnc2c1c(-c1ccc3nc(Cc4cccc(F)c4F)[nH]c3c1)nn2[C@H]1CC[C@H](N2CCOCC2)CC1", "readout.unit": "nM", "IC50": 197}
{"line.notation": "Nc1ncnc2c1c(-c1ccc3nc(Cc4cccs4)[nH]c3c1)nn2[C@H]1CC[C@H](N2CCOCC2)CC1", "readout.unit": "nM", "IC50": 56}
{"line.notation": "CN1CCN([C@H]2C[C@@H](c3nc(-c4ccc5ccc(-c6ccccc6)nc5c4)c4c(N)nccn43)C2)CC1", "readout.unit": "nM", "IC50": 58}

====

target: Insulin-like growth factor 1 receptor (Homo sapiens); assay: Inhibition IGF1R phosphorylation in human MiaPaCa2 cells; type: cell-based

{"line.notation": "Cc1cc(-c2nn([C@H]3CC[C@H](N4CCOCC4)CC3)c3ncnc(N)c23)cc2[nH]c(Cc3ccccc3)nc12", "IC50": "2790 nM"}
{"line.notation": "Cn1c(Cc2ccccc2)nc2cc(-c3nn([C@H]4CC[C@H](N5CCOCC5)CC4)c4ncnc(N)c34)ccc21", "IC50": "132 nM"}
{"line.notation": "Nc1ncnc2c1c(-c1ccc3nc(Cc4cccc(F)c4)[nH]c3c1)nn2[C@H]1CC[C@H](N2CCOCC2)CC1", "IC50": "140 nM"}
{"line.notation": "Nc1ncnc2c1c(-c1ccc3nc(Cc4ccccc4Cl)[nH]c3c1)nn2[C@H]1CC[C@H](N2CCOCC2)CC1", "IC50": "90 nM"}

Source listed as ChEMBL document CHEMBL1139781.
